Value source: paper PMC8277577

- TARGET_OF_ASSAY: SARS-CoV-2 receptor binding domain (RBD) (SARS-CoV-2, GenBank MN985325.1 …, UniProt P0DTC2)
- ASSAY_NOTES: BLI
- CONDITION_DETAILS: both partners purified
Measured pKd, listed per entry for reference.
Note on units: pKd is unitless, being -log10 of a concentration expressed in mol/L.

Solved entries:
BINDER | REPORTED_RESULT
C1009 (antibody, V domains shown, source: recombinant, purified) VH: EVQLVESGGGLLQPGGSLRLSCAASGFSVSSNYMTWVRQAPGKGLEWVAAIYSGDSTYYVDSVKGRFIISRDNSKNTVYLHLSSLRAEDTAVYYCARLVGYDFRSGSDGGYFDYWGHGTLVTVSS VL: QSALTQPASVSGSPGQSITISCTGTSSDIGNYNLVSWYQQHPGKAPKLMIYDVSKRPSGVSNRFSGSKSGNTASLTISGLQAEDETDYYCCSYAGSSTWVFGGGTKLTVL | 8.32
C960 (antibody, V domains shown, source: recombinant, purified) VH: QVQLVESGGGVVQPGRSLTLSCTASGFTFNRFAMFWVRQAPGKGLEWVAVISFDGSYEHYAESVKGRFAIFRDNPKNTLYLQMNSLRAEDTAVYYCAKSPINYCANGVCYPDSWGQGTLVTVSS VL: NFMLTQPHSVSESPGKTVTISCTGSSGSIANNYVQWYQQRPGSAPTTVIFEDTQRPSGVPDRFSGSIDSSSNSASLNISGLKPEDEADYYCQSFDVNSRWVFGGGTKLTVL | 8.82
C952 (antibody, V domains shown, source: recombinant, purified) VH: EVQLVQSGAEVKKPGESLTISCKDSGNSFTIYWIGWVRQMPGKGLEWMGMIYPGDSGTRYSPSFEGQVTISADESINTAYLQWRSLKASDTAMYYCVRGIAVDWYFDLWGRGTLVTVSS VL: QSVLTQPPSVSGAPGQRVTISCTGSSSNIGAGFDVHWYQQLPGTAPKLLIYGNNNRPSGVPDRFSGSKSATSASLAITGLQAEDEADYYCQSSDSSLSGLYVFGTGTNVIV | 9.23

Moving on to another binder below.
Which value of pKd has been reported for C1002 (antibody, V domains shown, source: recombinant, purified) VH: EVQLVESGGGLVQPGGSLRLSCAASEFIVSSNYMTWVRQAPGKGLEWVSIMYPGGSTFYADSVKGRFTISRDNSKNTLYLQINRLRAEDTAVYYCARDIAGRLDYWGQGTLVTVSS VL: DIQMTQSPSSLSASVGDRVTITCQASQDINNYLNWYQQKPGKAPKLLIYDASNLETGVPSRFSGSGSGTDFSFTISSLQPEDIATYYCQQYDNLSRLTFGGGTKVEIK in the records?
11.29
